Each entry below carries its reported Initial rates.
- experimental_system: Nitric oxide synthase, inducible (Mus musculus)
- Sequence (whole entry): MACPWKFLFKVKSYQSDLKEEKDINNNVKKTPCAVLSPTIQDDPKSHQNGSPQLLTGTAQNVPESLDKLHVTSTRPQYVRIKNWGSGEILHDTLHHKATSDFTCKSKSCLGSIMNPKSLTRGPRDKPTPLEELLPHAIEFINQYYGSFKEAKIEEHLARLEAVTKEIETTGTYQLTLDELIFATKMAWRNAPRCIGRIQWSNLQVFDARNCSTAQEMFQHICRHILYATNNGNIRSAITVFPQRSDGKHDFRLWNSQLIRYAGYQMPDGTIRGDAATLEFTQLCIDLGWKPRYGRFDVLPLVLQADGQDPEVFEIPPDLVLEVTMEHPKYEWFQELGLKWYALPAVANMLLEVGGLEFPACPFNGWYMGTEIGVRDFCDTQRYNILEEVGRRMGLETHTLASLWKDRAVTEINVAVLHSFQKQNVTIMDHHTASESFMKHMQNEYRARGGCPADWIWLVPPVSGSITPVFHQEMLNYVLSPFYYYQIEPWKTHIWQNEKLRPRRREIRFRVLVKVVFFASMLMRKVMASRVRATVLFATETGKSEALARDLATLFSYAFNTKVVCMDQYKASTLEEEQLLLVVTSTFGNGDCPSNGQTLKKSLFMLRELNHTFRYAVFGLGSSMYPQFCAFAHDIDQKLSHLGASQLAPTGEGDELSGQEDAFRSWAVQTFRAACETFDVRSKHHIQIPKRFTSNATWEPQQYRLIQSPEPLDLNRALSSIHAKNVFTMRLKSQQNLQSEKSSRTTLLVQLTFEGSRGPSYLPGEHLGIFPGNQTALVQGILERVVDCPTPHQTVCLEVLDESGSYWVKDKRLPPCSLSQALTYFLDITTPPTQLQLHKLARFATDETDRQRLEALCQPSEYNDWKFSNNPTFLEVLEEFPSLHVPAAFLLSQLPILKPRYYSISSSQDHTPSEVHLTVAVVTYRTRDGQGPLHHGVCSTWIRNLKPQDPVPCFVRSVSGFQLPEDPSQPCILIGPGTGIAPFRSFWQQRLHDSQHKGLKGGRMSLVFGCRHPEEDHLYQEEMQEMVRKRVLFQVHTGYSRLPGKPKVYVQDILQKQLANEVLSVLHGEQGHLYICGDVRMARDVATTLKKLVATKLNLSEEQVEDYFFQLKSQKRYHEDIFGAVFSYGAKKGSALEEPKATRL
- procedure_details: Formation of Nitric Oxide by Nitric Oxide synthase II(% relative to NOHA)
- Format: functional
Form: value (number only, do not type unit).

Solved cases (5 shown):
N/C(=N/CCCC(N)C(=O)O)NO (centres undefined)
100
CCCCCC/N=C(/N)NO
1
CCCCN/C(N)=N/O
68
CCC/N=C(/N)NO
15
NCCCC/N=C(/N)NO
8

Asked: Recorded Initial rates of N/C(=N/CCCCC(N)C(=O)O)NO (centres undefined) , please.
Given back: 55

====

Each entry below carries its reported Initial rates.
- experimental_system: UniProt P29475
- Sequence (P29475 whole entry): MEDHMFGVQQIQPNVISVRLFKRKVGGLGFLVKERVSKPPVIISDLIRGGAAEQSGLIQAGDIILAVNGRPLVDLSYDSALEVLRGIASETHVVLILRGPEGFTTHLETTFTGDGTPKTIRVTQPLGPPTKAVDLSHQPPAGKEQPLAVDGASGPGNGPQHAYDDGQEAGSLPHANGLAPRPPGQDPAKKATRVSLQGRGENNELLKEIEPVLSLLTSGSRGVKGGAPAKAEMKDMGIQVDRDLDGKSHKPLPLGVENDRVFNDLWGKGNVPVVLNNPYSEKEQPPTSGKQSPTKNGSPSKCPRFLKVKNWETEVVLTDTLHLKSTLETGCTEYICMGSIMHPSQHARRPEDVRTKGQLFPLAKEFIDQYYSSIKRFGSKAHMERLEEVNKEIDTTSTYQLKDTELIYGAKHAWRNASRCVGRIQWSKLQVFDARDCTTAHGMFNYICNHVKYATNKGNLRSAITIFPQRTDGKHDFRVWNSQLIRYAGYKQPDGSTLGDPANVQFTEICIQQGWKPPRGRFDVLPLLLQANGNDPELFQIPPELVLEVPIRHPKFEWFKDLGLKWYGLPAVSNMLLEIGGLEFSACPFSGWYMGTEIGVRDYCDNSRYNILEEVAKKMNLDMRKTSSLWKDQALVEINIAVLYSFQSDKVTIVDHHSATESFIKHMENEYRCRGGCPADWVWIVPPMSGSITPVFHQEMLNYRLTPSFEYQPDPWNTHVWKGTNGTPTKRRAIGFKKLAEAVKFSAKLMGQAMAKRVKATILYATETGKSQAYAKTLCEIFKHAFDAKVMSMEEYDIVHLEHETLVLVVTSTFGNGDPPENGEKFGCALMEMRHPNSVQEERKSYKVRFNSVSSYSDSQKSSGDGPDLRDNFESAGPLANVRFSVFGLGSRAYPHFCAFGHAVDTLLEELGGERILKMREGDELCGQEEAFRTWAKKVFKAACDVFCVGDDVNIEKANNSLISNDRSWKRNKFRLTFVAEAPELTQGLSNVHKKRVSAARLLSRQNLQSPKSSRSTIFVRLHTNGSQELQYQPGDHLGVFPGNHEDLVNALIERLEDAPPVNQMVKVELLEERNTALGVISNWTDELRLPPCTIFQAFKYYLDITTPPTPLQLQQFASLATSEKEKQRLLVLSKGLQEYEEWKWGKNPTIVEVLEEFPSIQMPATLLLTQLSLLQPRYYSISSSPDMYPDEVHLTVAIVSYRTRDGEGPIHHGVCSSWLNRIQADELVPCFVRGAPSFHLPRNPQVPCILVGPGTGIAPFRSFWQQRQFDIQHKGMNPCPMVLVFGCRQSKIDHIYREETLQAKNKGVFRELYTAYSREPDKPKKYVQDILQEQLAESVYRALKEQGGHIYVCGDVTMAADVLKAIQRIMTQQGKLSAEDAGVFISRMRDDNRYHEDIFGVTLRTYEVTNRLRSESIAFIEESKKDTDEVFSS
- procedure_details: Formation of Nitric Oxide by Nitric Oxide synthase I(% relative to NOHA)
- Format: functional

Solved cases (2 shown):
N/C(=N/CCCCC(=O)O)NO
< 0.5
N/C(=N/CC(N)C(=O)O)NO (stereo not drawn)
< 0.5

Please turn your attention to the following entry.
Asked: Recorded Initial rates of `NCCCN/C(N)=N/O` , please.
Given back: < 0.5

====

Each entry below carries its reported Initial rates.
- experimental_system: Nitric oxide synthase, inducible (Mus musculus)
- Sequence (whole entry): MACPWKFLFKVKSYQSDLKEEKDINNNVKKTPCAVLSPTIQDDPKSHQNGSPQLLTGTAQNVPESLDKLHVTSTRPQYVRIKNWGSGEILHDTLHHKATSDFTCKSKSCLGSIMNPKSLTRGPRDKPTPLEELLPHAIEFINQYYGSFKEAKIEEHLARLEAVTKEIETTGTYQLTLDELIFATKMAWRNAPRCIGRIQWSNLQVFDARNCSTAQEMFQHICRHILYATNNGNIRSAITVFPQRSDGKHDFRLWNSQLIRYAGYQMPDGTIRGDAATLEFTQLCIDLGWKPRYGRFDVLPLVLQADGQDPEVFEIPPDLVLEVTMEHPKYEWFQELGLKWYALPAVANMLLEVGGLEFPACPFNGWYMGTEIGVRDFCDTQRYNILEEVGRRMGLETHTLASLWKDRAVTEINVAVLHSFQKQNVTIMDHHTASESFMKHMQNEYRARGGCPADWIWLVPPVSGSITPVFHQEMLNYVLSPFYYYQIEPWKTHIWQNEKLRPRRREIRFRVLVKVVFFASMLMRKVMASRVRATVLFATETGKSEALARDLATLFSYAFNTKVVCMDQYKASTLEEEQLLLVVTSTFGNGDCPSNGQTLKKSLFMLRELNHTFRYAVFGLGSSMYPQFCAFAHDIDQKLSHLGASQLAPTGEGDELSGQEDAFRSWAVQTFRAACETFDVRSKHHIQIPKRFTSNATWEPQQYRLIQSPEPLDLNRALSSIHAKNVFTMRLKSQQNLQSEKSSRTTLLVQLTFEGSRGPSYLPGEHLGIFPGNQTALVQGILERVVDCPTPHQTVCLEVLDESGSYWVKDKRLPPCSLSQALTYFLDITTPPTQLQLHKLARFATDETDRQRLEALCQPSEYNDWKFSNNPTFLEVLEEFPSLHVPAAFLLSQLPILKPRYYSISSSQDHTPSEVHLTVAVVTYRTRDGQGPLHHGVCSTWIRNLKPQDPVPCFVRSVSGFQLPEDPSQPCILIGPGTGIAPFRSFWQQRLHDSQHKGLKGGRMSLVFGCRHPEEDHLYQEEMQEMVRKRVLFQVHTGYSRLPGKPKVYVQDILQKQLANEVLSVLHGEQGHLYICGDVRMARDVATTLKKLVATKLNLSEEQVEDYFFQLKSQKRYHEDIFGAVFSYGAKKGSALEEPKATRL
- procedure_details: Formation of Nitric Oxide by Nitric Oxide synthase II(% relative to NOHA)
- Format: functional

NCCCN/C(N)=N/O
< 0.5
NC(=NCCCC(=O)O)NO
< 0.5

Please turn your attention to the following entry.
Asked: Recorded Initial rates of NC(=NCCC(N)C(=O)O)NO (stereo not drawn) , please.
Given back: < 0.5
